Data provenance: paper PMC10653921

System: PctB-Tar
study-conditions: read-out: EC50 by FRET ^ a; attractant response, tethering buffer pH 7.0, Hill fit
measured-attribute: pEC50
# pEC50 is unitless: minus log10 of the molar concentration; print number only

Identify measured pEC50 associated with "NCCC[C@H](N)C(=O)O"
4.99

* * *

measurement-target: PA4915-LBD (Pseudomonas aeruginosa, UniProt Q9HUP8)
Sequence (Q9HUP8 32-189 limits assumed): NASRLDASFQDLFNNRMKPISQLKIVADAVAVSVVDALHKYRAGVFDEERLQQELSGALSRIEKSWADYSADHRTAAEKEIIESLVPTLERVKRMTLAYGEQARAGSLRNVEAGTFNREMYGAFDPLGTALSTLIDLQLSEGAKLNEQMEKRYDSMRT
study-conditions: read-out: KD by ITC ^ b
measured-attribute: pKd
# pKd is unitless: minus log10 of the molar concentration; print number only

Identify measured pKd associated with "NCCc1ccccc1"
4.24

* * *

measurement-target: PctB-LBD (PA4310) (Pseudomonas aeruginosa)
Sequence (Q9HW91 32-276 limits assumed): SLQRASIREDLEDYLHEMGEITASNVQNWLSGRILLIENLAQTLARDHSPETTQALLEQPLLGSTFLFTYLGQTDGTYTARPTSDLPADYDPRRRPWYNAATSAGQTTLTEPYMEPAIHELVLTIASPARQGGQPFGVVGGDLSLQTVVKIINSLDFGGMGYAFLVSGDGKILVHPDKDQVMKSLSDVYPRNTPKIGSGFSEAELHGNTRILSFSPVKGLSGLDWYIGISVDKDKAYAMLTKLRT
study-conditions: read-out: KD by ITC ^ b
measured-attribute: Kd (µM)
State just the number; it will be interpreted in µM.

Identify measured Kd associated with "NCCC[C@H](N)C(=O)O"
559
